# Test system: HOP-62 NSCLC
# testDescription: NCI-60 one-dose screen, 48 h (100 = growth as untreated, 0 = no growth, -100 = all killed)
# conditionSummary: 10 µM unless noted
# Method: Growth inhibition of the HOP-62 human Non-Small Cell Lung tumor cell line is measured as a screen for anti-cancer activity. Cells are grown in 96 well plates and exposed to the test compound for 48 hours. Compounds are tested at a single concentration, which is 10^-5 M for most compounds. The reported endpoint is percent growth (GI% or GIPRCNT), where numbers from 0 - 100% represent growth inhibition, and numbers from -100% - 0 represent cell death. […]
Compounds without any hit were thinned out: in the full panel of roughly 83,000, 20% have a hit.
This section presents molecules with their documented growth values.
Numeric only. Scale: %

Query block: Query (molecule): COc1cc2c(Oc3ccc4[nH]c(C)cc4c3F)ncnc2cc1OCCCN1CCCC1 ; field requested: growth
Result block: 79.8

Query block: And for CSC1=C(N)C(=O)c2[nH]cc(CO)c2C1=N ?
Result block: -72.1

Query block: Now consider Cc1ccc(N)cc1CN1C(=O)c2ccccc2C1=O .
Result block: 97.1

Query block: Item: Cc1ccc(NC(=O)c2ccc(CN3CC[C@H](N(C)C)C3)c(C(F)(F)F)c2)cc1Nc1nccc(-c2cncnc2)n1
Result block: -0.939

Query block: What about this molecule? CC#CC(=O)N1CCC[C@H]1c1nc(-c2ccc(C(=O)Nc3ccccn3)cc2)c2c(N)nccn12
Result block: 68.9

Query block: COc1ccc(C2CC(=O)c3c(O)c(OC)c(OC)c(OC)c3O2)c(O)c1 (stereo not given) ?
Result block: 64.9

Query block: Continue with C=CC(=O)N1CCC[C@H](n2c(=O)n(-c3ccc(Oc4ccccc4)cc3)c3c(N)ncnc32)C1
Result block: 82.8

Query block: Follow-up entry: O=S1(=O)OC(c2cc(Cl)c(O)c(Br)c2)(c2cc(Cl)c(O)c(Br)c2)c2ccccc21
Result block: 99

Query block: Subsequent entry: Cc1nc(-c2cn3c(n2)-c2ccc(-c4cnn(C(C)(C)C(N)=O)c4)cc2OCC3)n(C(C)C)n1
Result block: 31.2

Query block: Next entry: CCN(CC)c1cc2oc3cc(N)cc(=N)c-3nc2cc1C
Result block: 65.3
